- Tested on: HRV16
- ASSAY DETAILS: HRV16 HELA EC50 (cytopathic effect in H1-HeLa cells)
- Format: cell-based
- REPORTED CONDITIONS: 96 h, H1-HeLa cells, 33° C., read-out: HRV16 HELA EC50
MEASUREMENT LABEL: pEC50
# log scale: pEC50 equals minus log10 of the concentration in mol/L

Solved cases below.
compound="N#C[C@]1(COP(=O)(NCCOC(=O)C2CCCCC2)Oc2ccccc2)O[C@@H](c2ccc3c(N)ncnn23)[C@H](O)[C@@H]1O (stereo partly drawn) [Example 166]" measurement_label=pEC50 numeric_value=6.47
compound="CCCCOC(=O)[C@H](C)N[P@](=O)(OC[C@@]1(C#N)O[C@@H](c2ccc3c(N)ncnn23)[C@H](O)[C@@H]1O)Oc1ccccc1 [Example 54]" measurement_label=pEC50 numeric_value=6.42

Moving on to the next compound.
Query block: Dear colleague, I am looking for the recorded pEC50 of the following compound: C[C@@H](NP(=O)(OC[C@@]1(C#N)O[C@@H](c2ccc3c(N)ncnn23)[C@H](O)[C@@H]1O)Oc1ccccc1)C(=O)OCC(C)(C)C (stereo partly drawn) [Example 102]
Result block: 4.78

---

- System: HRV16
- ASSAY DETAILS: HRV16 HELA EC50 (cytopathic effect in H1-HeLa cells)
- Assay type: cell-based
- REPORTED CONDITIONS: 96 h, H1-HeLa cells, 33° C., read-out: HRV16 HELA EC50
Attribute: EC50

Solved entries (count: 2):
compound="CCC(CC)COC(=O)[C@@H](NP(=O)(OC[C@@]1(C#N)O[C@@H](c2ccc3c(N)ncnn23)[C@H](O)[C@@H]1O)Oc1ccccc1)C1CCCCC1 (some centres unmarked)" target_system=HRV16 result="> 31900 nM"
compound="C[C@H](NP(=O)(OC[C@@]1(C#N)O[C@@H](c2ccc3c(N)ncnn23)[C@H](O)[C@@H]1O)Oc1ccccc1)C(=O)O[C@@H]1CCNC1 (mixture of isomers)" target_system=HRV16 result="27000 nM"

Query block: Fill in: EC50 of CCCCOC(=O)CC[C@H](NP(=O)(OC[C@@]1(C#N)O[C@@H](c2ccc3c(N)ncnn23)[C@H](O)[C@@H]1O)Oc1ccccc1)C(=O)OC1CCCCC1 (some centres unmarked) is ___
Result block: > 40200 nM

Query block: Looking for the measured EC50 of `CC(C)[C@H](N)C(=O)Nc1ncnn2c([C@@H]3O[C@](C#N)(CO[P@@](=O)(N[C@@H](C)C(=O)OC4CCCCC4)Oc4ccccc4)[C@@H](O)[C@H]3O)ccc12` , can you help?
Result block: > 50000 nM

Query block: Consider the compound C[C@H](NP(=O)(OC[C@@]1(C#N)O[C@@H](c2ccc3c(N)ncnn23)[C@H](O)[C@@H]1O)Oc1ccccc1)C(=O)OC1CCCCC1 (some centres unmarked) and give its measured EC50.
Result block: 510 nM

Query block: What value of measured EC50 is listed for C[C@H](NP(=O)(OC[C@@]1(C#N)O[C@@H](c2ccc3c(N)ncnn23)[C@H](O)[C@@H]1O)Oc1ccccc1)C(=O)OCC1CCC1 (mixture of isomers) ?
Result block: 353 nM

Query block: Would you mind telling me what EC50 value was observed for N#C[C@]1(COP(=O)(NCC(=O)OC2CCCC2)Oc2ccccc2)O[C@@H](c2ccc3c(N)ncnn23)[C@H](O)[C@@H]1O (single isomer, unassigned) [Example 113] ?
Result block: 2640 nM
